Experimental target: eIF4E (untagged, co-expressed with p20);His6x-p20 6x mutant R55L;R56L;R57L;H60L;H61L;H62L (Saccharomyces cerevisiae;Saccharomyces cerevisiae) (UniProt P07260+P12962)
Sequence 1: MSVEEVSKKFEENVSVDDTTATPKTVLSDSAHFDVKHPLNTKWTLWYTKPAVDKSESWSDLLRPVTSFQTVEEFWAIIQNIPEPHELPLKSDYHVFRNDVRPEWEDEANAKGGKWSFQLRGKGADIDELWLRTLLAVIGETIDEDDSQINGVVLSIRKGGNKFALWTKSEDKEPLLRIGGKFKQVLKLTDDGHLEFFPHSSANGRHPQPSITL
Sequence 2: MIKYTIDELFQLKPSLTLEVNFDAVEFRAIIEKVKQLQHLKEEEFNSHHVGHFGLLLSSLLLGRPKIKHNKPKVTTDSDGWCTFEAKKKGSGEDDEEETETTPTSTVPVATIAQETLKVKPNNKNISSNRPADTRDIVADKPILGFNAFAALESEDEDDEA
Procedure summary: EMSA
Condition label: 5' m7GpppG cap (Vaccinia Capping System); Buffer A: 10 mM sodium phosphate pH 7.5, 100 mM NaCl, 2.5 mM MgCl2, 1 mM DTT, 0.05% NP40; MST at 25 C (proteins for capped RNA MST RED-tris-NTA labeled in …)
Endpoint name: Kd

1. GGGAACAAAAGCUGGUAAUCAAGAAUUACAAGAAACAAAAAUUCAAGUAAAUAACAGAUAAUAC [capped SSA1 5'UTR RNA, 64 nt]
285 nM

---

Experimental target: His6x-eIF4E;p20 N-terminal 18aa peptide (Saccharomyces cerevisiae;Saccharomyces cerevisiae) (UniProt P07260+P12962)
Sequence 1: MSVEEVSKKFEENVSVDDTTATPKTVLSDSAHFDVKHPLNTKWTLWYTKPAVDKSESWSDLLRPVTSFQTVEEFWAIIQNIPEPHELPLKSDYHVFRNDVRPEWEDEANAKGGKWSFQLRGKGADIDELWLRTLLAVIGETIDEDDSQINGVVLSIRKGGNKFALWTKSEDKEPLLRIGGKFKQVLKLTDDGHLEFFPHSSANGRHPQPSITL
Sequence 2: MIKYTIDELFQLKPSLTL
Procedure summary: MST
Condition label: equimolar 18aa p20 peptide; 5' m7GpppG cap (Vaccinia Capping System); Buffer A: 10 mM sodium phosphate pH 7.5, 100 mM NaCl, 2.5 mM MgCl2, 1 mM DTT, 0.05% NP40; MST at 25 C (proteins for capped RNA MST RED-tris-NTA labeled in …)
pKd: −log10 of the molar value.
Endpoint name: pKd

1) GGGAACAAAAGCUGGUAAUCAAGAAUUACAAGAAACAAAAAUUCAAGUAAAUAACAGAUAAUAC [capped SSA1 5'UTR RNA, 64 nt]
6.68

Source: paper PMC5928113
